Numbers sourced from patent US20080280952A1.

molecular target: human cannabinoid CB2 receptor (Homo sapiens); assay: Cannabinoid CB2 receptor agonist activity, yeast reporter assay
pEC50: −log10 of the molar value.
measured.attribute: pEC50

pEC50 measured on O=C(NCC1CCOCC1)c1ccc(Nc2cccc(C(F)(F)F)c2)nc1C1CC1 [Example 125] = 6.00 to 6.52

// field: pEC50; key: COc1cccc(Nc2cc(C3CCCC3)c(C(=O)NCC3CCOCC3)cn2)c1 [Example 26] ; value = 6.00 to 6.52

The compound O=C(NCC1CCOCC1)c1ccc(Nc2cccc(Br)c2)nc1C1CC1 [Example 126] showed pEC50 equal to 6.00 to 6.52

What the record says about O=C(NCC1CCOCC1)c1cnc(Nc2ccc(F)c(C(F)(F)F)c2)cc1C1CC1 [Example 93] : pEC50 is 6.00 to 6.52

// Cc1cc(Cl)ccc1Nc1cc(C2CCCC2)c(C(=O)NCC2CCOCC2)cn1 [Example 23] : pEC50 value = 6.00 to 6.52

Lab note: measured pEC50 of O=C(NCC1CCOCC1)c1cnc(Nc2ccc(F)c(Cl)c2)cc1C1CC1 [Example 21] was 6.00 to 6.52

What the record says about O=C(NCC1CCOCC1)c1cnc(Nc2ccc(Br)cc2F)cc1C1CC1 [Example 94] : pEC50 is 6.00 to 6.52

The recorded pEC50 for entry O=C(NCC1CCOCC1)c1cnc(Nc2cc(C(F)(F)F)ccc2F)cc1C1CC1 [Example 102] equals 6.00 to 6.52

// O=C(NCC1CCC1)c1cnc(Nc2ccc(F)c(C(F)(F)F)c2)cc1C1CC1 [Example 123] : pEC50 value = 6.00 to 6.52

* * *

target: human cannabinoid CB2 receptor (Homo sapiens, UniProt P34972); construct: expressed in transfected cells; host or cells: Saccharomyces cerevisiae strain MMY23 (cassette integrated at the ura3 locus, GPD promoter); experiment: Cannabinoid CB2 receptor agonist activity, yeast reporter assay; format: cell-based; details: read-out: efficacy (Emax) at the cloned human cannabinoid CB2 receptor
Sequence (P34972 whole entry): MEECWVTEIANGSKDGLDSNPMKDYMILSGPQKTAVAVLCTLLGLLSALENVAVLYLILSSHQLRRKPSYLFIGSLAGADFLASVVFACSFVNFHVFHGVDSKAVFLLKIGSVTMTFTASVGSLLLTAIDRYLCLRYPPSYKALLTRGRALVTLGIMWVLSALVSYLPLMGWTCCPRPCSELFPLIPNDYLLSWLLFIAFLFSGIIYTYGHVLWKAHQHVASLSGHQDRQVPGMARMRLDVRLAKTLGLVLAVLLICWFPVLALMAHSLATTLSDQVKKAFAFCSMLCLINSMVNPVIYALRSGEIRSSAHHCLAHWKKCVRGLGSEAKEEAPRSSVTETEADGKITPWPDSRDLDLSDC
Please respond with reported Emax for every item in the list.

Measured Emax (human cannabinoid CB2 receptor (Homo sapiens, UniProt P34972)), entry `Cc1cc(Cl)ccc1Nc1cc(C2CCCC2)c(C(=O)NCC2CCOCC2)cn1` : > 50%

Log: human cannabinoid CB2 receptor (Homo sapiens, UniProt P34972), molecule `O=C(NCC1CCCC1)c1cnc(Nc2ccc(F)cc2F)cc1C1CC1` , Emax = > 50%

Observed Emax, human cannabinoid CB2 receptor (Homo sapiens, UniProt P34972), `Cc1c(Nc2cc(C3CC3)c(C(=O)NCC3CCOCC3)cn2)cccc1C(F)(F)F` : > 50%

Kindly note: human cannabinoid CB2 receptor (Homo sapiens, UniProt P34972), `Cc1cccc(Nc2cc(C3CCCC3)c(C(=O)NCC3CCOCC3)cn2)c1` , Emax value reported: > 50%

Form field Emax for item `O=C(NCC1CCOCC1)c1cnc(Nc2ccc(Br)c(Cl)c2)cc1C1CC1` on human cannabinoid CB2 receptor (Homo sapiens, UniProt P34972): > 50%

Reading of Emax for `O=C(NCC1CCOCC1)c1cnc(Nc2ccc(F)c(Cl)c2)cc1C1CC1` with human cannabinoid CB2 receptor (Homo sapiens, UniProt P34972): > 50%

Response field Emax (human cannabinoid CB2 receptor (Homo sapiens, UniProt P34972)) for item `O=C(NCC1CCOCC1)c1ccc(Nc2cccc(C(F)(F)F)c2)nc1C1CC1` : > 50%

Kindly note: human cannabinoid CB2 receptor (Homo sapiens, UniProt P34972), `Cc1cccc(Nc2cc(C3CC3)c(C(=O)NCC3CCCC3)cn2)c1` , Emax value reported: > 50%

Lab note: molecule `O=C(NCC1CCOCC1)c1cnc(Nc2ccc(F)cc2Cl)cc1C1CCCC1` tested on human cannabinoid CB2 receptor (Homo sapiens, UniProt P34972); recorded Emax was > 50%

Emax on human cannabinoid CB2 receptor (Homo sapiens, UniProt P34972) for `Cc1ccc(C(F)(F)F)cc1Nc1cc(C2CC2)c(C(=O)NCC2CCOCC2)cn1` is > 50%

Lab note: molecule `COc1cccc(Nc2cc(C3CCCC3)c(C(=O)NCC3CCOCC3)cn2)c1` tested on human cannabinoid CB2 receptor (Homo sapiens, UniProt P34972); recorded Emax was > 50%

# value of Emax, human cannabinoid CB2 receptor (Homo sapiens, UniProt P34972), item `O=C(NCC1CCOCC1)c1cnc(Nc2ccc(F)c(F)c2)cc1C1CC1` = > 50%

The measured Emax that `O=C(NCC1CCOCC1)c1cnc(Nc2cc(C(F)(F)F)ccc2Cl)cc1C1CC1` showed for human cannabinoid CB2 receptor (Homo sapiens, UniProt P34972) is > 50%

The recorded Emax with human cannabinoid CB2 receptor (Homo sapiens, UniProt P34972) for `Cc1cccc(Nc2cc(C3CC3)c(C(=O)NCC3CCOCC3)cn2)c1C#N` was > 50%

# lookup: `Cc1cc(Cl)ccc1Nc1cc(C2CC2)c(C(=O)NCC2CCOCC2)cn1` on human cannabinoid CB2 receptor (Homo sapiens, UniProt P34972), Emax = > 50%

Bench note, human cannabinoid CB2 receptor (Homo sapiens, UniProt P34972): `Cc1cc(Nc2cc(C3CC3)c(C(=O)NCC3CCOCC3)cn2)ccc1Br` , Emax reads > 50%

I looked up `O=C(NCC1CCOCC1)c1cnc(Nc2ccc(OC(F)(F)F)cc2Br)cc1C1CC1` and its Emax for human cannabinoid CB2 receptor (Homo sapiens, UniProt P34972) was > 50%

human cannabinoid CB2 receptor (Homo sapiens, UniProt P34972) assay, molecule `N#Cc1cccc(Nc2cc(C3CCCC3)c(C(=O)NCC3CCOCC3)cn2)c1` , recorded Emax = > 50%
